B1: tRNA (parent)
chain: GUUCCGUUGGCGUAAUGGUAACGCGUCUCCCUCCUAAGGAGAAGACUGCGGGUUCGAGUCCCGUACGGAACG

# Variants of: B1
# measurementDescription: yeast fitness relative to wild type (ratio to wild type); higher = fitter; tRNA-Arg(CCU), competitive growth, 37 C, YPD
Fewer inactive variants are shown than the library holds.
measuredProperty: yeast fitness

Worked examples follow.
change | result
C4A C29G G50A | ≤ 0.5
C22G C31G C62U G68C | ≤ 0.5
C27A A37C G52A U59A | ≤ 0.5
G12A G23A U35G A36G C62U A69G | ≤ 0.5
C30U G38C G63A A70G | ≤ 0.5

## Input Please look up its yeast fitness: G39C C49A
## Output 0.664

## Input Please look up its yeast fitness: U35G A42G U47A
## Output ≤ 0.5

## Input Please look up its yeast fitness: U3C A36U A69U
## Output ≤ 0.5

## Input Please look up its yeast fitness: C5A C29G C61A
## Output ≤ 0.5

## Input Please look up its yeast fitness: C5G C11U A45C
## Output ≤ 0.5
